Assay details: Human HepG2 cell viability assay in 384 well format
Format: toxicity, cell-based
Design: dose 125 nL, time 70.5 hour; concentration not given beside the values
Conditions used: HepG2 cells, read-out: Inhibition
Overview of recorded cytotoxicity at 70.5 h for various compounds
Numeric answer only, unit % assumed.

Worked cases, cytotoxicity at 70.5 h given:
[
  {
    "Compound": "Cc1ccccc1N1CC(C)N(C(=O)CCn2cccn2)CC1=O (stereo not drawn)",
    "Measurement units": "%",
    "cytotoxicity at 70.5 h": 15.3
  },
  {
    "Compound": "CC(=O)Nc1nc(C(=O)N2CCCC(n3cncn3)C2)cs1 (stereo not drawn)",
    "Measurement units": "%",
    "cytotoxicity at 70.5 h": -11.2
  },
  {
    "Compound": "CS(=O)(=O)N1C[C@H]2N(c3ncccn3)CCC[C@@]2(C(=O)NCC2CC2)C1",
    "Measurement units": "%",
    "cytotoxicity at 70.5 h": -7.17
  },
  {
    "Compound": "CC(C)NC(=O)C1CCN(C(C)C(=O)N2CCc3sccc3C2)CC1 (stereo not drawn)",
    "Measurement units": "%",
    "cytotoxicity at 70.5 h": -2.44
  },
  {
    "Compound": "Cc1ccc(C(=O)N2CCN3C[C@H](Oc4cccnc4)C[C@H]3C2)cn1",
    "Measurement units": "%",
    "cytotoxicity at 70.5 h": 4.6
  }
]

Prompt: Need cytotoxicity at 70.5 h, item COC(=O)CC(c1cccs1)c1oc(C)cc(=O)c1O (stereo not drawn)
Completion: -7.87

Prompt: Need cytotoxicity at 70.5 h, item COCCNC(=O)NC1(c2nc(C)no2)CCCCC1
Completion: -0.559

Prompt: Need cytotoxicity at 70.5 h, item CC(C)c1cc(N2CC[C@H](F)C2)n2nccc2n1
Completion: 2.77

Prompt: Need cytotoxicity at 70.5 h, item N#Cc1ccccc1OCCN1CCC(C(=O)N2CCOCC2)CC1
Completion: -9.69

Prompt: Need cytotoxicity at 70.5 h, item CCn1cc(CN2CCCN(C(=O)CCN3CCCC3=O)CC2)cn1
Completion: -3.66

Prompt: Need cytotoxicity at 70.5 h, item O=C1N(c2cncnc2)CCC12CCCN(Cc1cccnc1)C2 (stereo not drawn)
Completion: -3.72

Prompt: Need cytotoxicity at 70.5 h, item CCc1nc(C2CCCN2Cc2nccn2Cc2ccccc2)no1 (stereo not drawn)
Completion: -10.3

Prompt: Need cytotoxicity at 70.5 h, item Cc1ccc(C)c(OC2CCN(C(=O)c3ccc(O)nc3)CC2)c1
Completion: 2.43

Prompt: Need cytotoxicity at 70.5 h, item COCCN(Cc1cccnc1)S(=O)(=O)c1cc(C)ccc1F
Completion: -5.06

Prompt: Need cytotoxicity at 70.5 h, item CCN1CCc2nc(N3CCOCC3)nc(NC(C)C)c2C1
Completion: -9.45

Prompt: Need cytotoxicity at 70.5 h, item CC[C@@]1(O)CCN(C(=O)c2cccc3cc(C)oc23)C[C@H]1O
Completion: 6.9

Prompt: Need cytotoxicity at 70.5 h, item O=C(Cc1c[nH]c2ncccc12)NCC(O)c1ccccc1F (stereo not drawn)
Completion: 15.1

Prompt: Need cytotoxicity at 70.5 h, item Cc1nn(C)c(C)c1C1CCCN1C(=O)c1ccc(CN(C)C)cc1 (stereo not drawn)
Completion: 15.1
